- Assay text: DPPH˙ radical scavenging assay
- Condition details: 10 µg/mL
- Description: The stock solutions (1 mg/mL) of the tested compounds and the controls were obtained, by dissolving the substances in dimethyl sulfoxide (DMSO). […] The DPPH˙ radical scavenging assay is based on the transfer of one hydrogen from the analyzed compound to the violet stable free radical DPPH˙ (2,2-diphenyl-1-picrylhydrazyl), as we convert it into a yellow compound. The absorbance of the reagent mixed with samples presented inversely proportional values to the amount of DPPH˙ neutralized. […]
Endpoint name: % of DPPH˙ Scavenging

{"Compound": "O=C(CSc1nc2ccccc2c(=O)n1Cc1ccccc1)NN=Cc1ccc(O)c(O)c1O [Compound 5b]", "Endpoint name": "% of DPPH˙ Scavenging", "Assay result": "81.12%"}
{"Compound": "Cc1c(C)c2c(c(C)c1O)CCC(C)(C(=O)O)O2 (stereo not shown) [Trolox, reference compound]", "Endpoint name": "% of DPPH˙ Scavenging", "Assay result": "94.85%"}
{"Compound": "O=C1O[C@H]([C@@H](O)CO)C(O)=C1O [Ascorbic acid, reference compound]", "Endpoint name": "% of DPPH˙ Scavenging", "Assay result": "94.39%"}

* * *

The compounds listed here are annotated with their % of ABTS˙^+ Scavenging.
- Assay text: ABTS˙+ radical scavenging assay
- Condition details: 13.32 µg/mL
Endpoint name: % of ABTS˙^+ Scavenging

{"Structure": "CCCCn1c(SCC(=O)NN=C(C)c2ccc(O)cc2O)nc2ccccc2c1=O", "Endpoint name": "% of ABTS˙^+ Scavenging", "Assay result": "85.79%"}
{"Structure": "C=CCn1c(SCC(=O)NN=C(C)c2ccc(O)cc2O)nc2ccccc2c1=O", "Endpoint name": "% of ABTS˙^+ Scavenging", "Assay result": "70.24%"}

* * *

- Assay text: Ferric reducing antioxidant potential (FRAP) assay
- Parameters: concentration or dose not given beside the values
- Condition details: relative to ascorbic acid
- Description: In the ferric reducing antioxidant potential (FRAP) assay, in comparison with a blank sample prepared from DMSO mixed with FRAP reagent, the absorbance of the solutions was measured at λ = 593 nm. […] Using Equation (4), we calculated the reducing antioxidant potential of 5a–d and 6a–d as a percentage of the activity of the reference compounds:(4) % of control activity=sample absorbance/reference absorbance×100 […]
The compounds listed here are annotated with their FRAP, % of Activity of Ascorbic Acid.
Endpoint name: FRAP, % of Activity of Ascorbic Acid

{"Structure": "CCCCn1c(SCC(=O)NN=C(C)c2ccc(O)cc2O)nc2ccccc2c1=O", "Endpoint name": "FRAP, % of Activity of Ascorbic Acid", "Assay result": "24.36%"}
{"Structure": "C=CCn1c(SCC(=O)NN=C(C)c2ccc(O)cc2O)nc2ccccc2c1=O", "Endpoint name": "FRAP, % of Activity of Ascorbic Acid", "Assay result": "22.81%"}
{"Structure": "CCCCn1c(SCC(=O)NN=Cc2ccc(O)c(O)c2O)nc2ccccc2c1=O", "Endpoint name": "FRAP, % of Activity of Ascorbic Acid", "Assay result": "80.80%"}
{"Structure": "CCn1c(SCC(=O)NN=Cc2ccc(O)c(O)c2O)nc2ccccc2c1=O", "Endpoint name": "FRAP, % of Activity of Ascorbic Acid", "Assay result": "83.40%"}

These data points were gathered from paper PMC9867241.
